// provenance: patent US20250051332A1

Target: κOR (Homo sapiens, UniProt P41145)
Construct: host or cells: CHO-K1
Sequence (P41145 whole entry): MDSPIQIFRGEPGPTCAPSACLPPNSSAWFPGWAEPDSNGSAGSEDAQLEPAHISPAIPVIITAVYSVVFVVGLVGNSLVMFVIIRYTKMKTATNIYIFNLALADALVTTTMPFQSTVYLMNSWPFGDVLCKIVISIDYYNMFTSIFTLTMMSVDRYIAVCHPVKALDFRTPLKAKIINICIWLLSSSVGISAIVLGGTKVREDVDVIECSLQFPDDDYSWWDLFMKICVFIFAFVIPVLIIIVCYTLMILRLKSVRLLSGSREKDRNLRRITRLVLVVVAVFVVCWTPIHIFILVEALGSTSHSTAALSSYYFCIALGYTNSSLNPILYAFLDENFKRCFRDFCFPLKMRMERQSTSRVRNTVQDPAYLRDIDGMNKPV
Assay: cell-based
Type: cell-based

molecule	κOR cAMP inhibition pEC50 ± SEM
CCC1CN2CCC34C(=C(C(=O)OC)C1CC23)Nc1ccc(Br)cc14 (centres unmarked) [Compound 27, 10-Bromo-19,20-dihydroakuammicine]	7.5
C/C=C1/CN2CC[C@]34C(=C(C(=O)OC)[C@H]1C[C@H]23)Nc1ccc(-c2ccsc2)cc14	8.1
C/C=C1/C[N+]2(CC3CC3)CC[C@]34C(=C(C(=O)OC)[C@H]1C[C@@H]32)Nc1ccc(Br)cc14 (some centres unmarked)	6.7
C/C=C1/CN2CC[C@]34C(=C(C(=O)OC)[C@H]1C[C@H]23)Nc1ccc(-c2ccccc2)cc14	7.8
C/C=C1/CN2CC[C@]34C(=C(C(=O)OC)[C@H]1C[C@H]23)Nc1ccc(-c2ccoc2)cc14	9.1
C/C=C1/CN2CC[C@]34c5cc(Br)ccc5NC3C(C(=O)OC)[C@H]1C[C@H]24 (some centres unmarked) [Compound 21, 10-Bromo-2,16-dihydroakuammicine]	7.3
CC[C@@H]1CN2CC[C@]34C(=C(C(=O)OC)[C@H]1C[C@H]23)Nc1ccccc14 [Compound 13, 19,20-dihydroakuammicine]	5.8
C/C=C1/CN2CC[C@]34C(=C(C(=O)OC)[C@H]1C[C@H]23)Nc1ccc(I)cc14	8.2
